The values you see were collected from patent EP4745135A1.

For each of the compounds below, state its inhibition at 2 µM.
Tgt: human Cereblon WT GST-tagged protein (Homo sapiens, UniProt Q96SW2)
Construct: purchased CISBIO 64BDCRBNPEH
Sequence (Q96SW2 whole entry): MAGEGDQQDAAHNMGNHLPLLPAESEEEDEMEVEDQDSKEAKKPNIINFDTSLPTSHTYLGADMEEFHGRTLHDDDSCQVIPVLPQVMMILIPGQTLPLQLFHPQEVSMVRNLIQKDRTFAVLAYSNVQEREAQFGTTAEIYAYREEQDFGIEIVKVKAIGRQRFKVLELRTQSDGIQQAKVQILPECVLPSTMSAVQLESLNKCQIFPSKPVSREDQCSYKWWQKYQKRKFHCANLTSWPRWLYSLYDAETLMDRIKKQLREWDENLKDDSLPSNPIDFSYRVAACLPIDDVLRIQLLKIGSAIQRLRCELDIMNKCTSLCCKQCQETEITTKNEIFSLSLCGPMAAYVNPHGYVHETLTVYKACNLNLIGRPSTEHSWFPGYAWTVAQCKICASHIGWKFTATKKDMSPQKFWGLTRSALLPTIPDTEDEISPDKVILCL
Test protocol: CRBN-binding affinity, HTRF (CEREBLON BINDING kit)
Run parameters: read-out: Inhibition Rate at 2 µM (%)
Procedure: The CEREBLON BINDING kits (specification: 10,000 tests; product number: Catalog # 64BDCRBNPEH; CISBIO company) was used to determine the CRBN binding ability of the compounds to be tested through a HTRF method (homogeneous time-resolved fluorescence). The specific methods are as follows: • 1. […] Specifically, diluent #9 (1X) solution was used as the diluent, and multiple concentration gradients were set. […] Then, 2.5 µL of human Cereblon WT GST-tagged protein solution was added to each well. […]

Okay, here is my list. What is inhibition at 2 µM for each of these?
1. O=C1CCC(N2Cc3c(CN4CCN(c5nc(Cl)nc6c5SCC6)CC4)cccc3C2=S)C(=O)N1 (stereo not shown)
2. O=C1CCC(N2Cc3c(CN4CCn5c(nnc5C(F)(F)F)C4)cccc3C2=S)C(=O)N1 (stereo not shown)
3. O=C1CCC(N2Cc3c(CN4CCN(Cc5ccccc5-c5ccc(Cl)cc5)CC4)cccc3C2=S)C(=O)N1 (stereo not shown)
4. O=C1CCC(N2Cc3cc(CN4CCC(c5ccccc5F)CC4)ccc3C2=S)C(=O)N1 (stereo not shown)
5. Cc1cscc1C1CCN(Cc2cccc3c2CN(C2CCC(=O)NC2=O)C3=S)CC1 (stereo not shown)
6. Cc1cccc(N2CCN(Cc3cccc4c3CN(C3CCC(=O)NC3=O)C4=S)CC2)n1 (stereo not shown)

1. 80 to 100%
2. 60 to 80%
3. 60 to 80%
4. 80 to 100%
5. 80 to 100%
6. 80 to 100%

Okay, here is my list. What is inhibition at 2 µM for each of these?
1. O=C1CCC(N2Cc3c(CN4CCN(c5ncnc6sc7c(c56)CCCC7)CC4)cccc3C2=S)C(=O)N1 (stereo not shown)
2. O=C1CCC(N2Cc3cc(CN4CCC(c5ncnc6scc(-c7ccccc7)c56)CC4)ccc3C2=S)C(=O)N1 (stereo not shown)

["80 to 100%", "80 to 100%"]

Okay, here is my list. What is inhibition at 2 µM for each of these?
1. O=C1CCC(N2Cc3c(CN4CCN(c5cccc(F)c5)CC4)cccc3C2=S)C(=O)N1 (stereo not shown)
2. O=C1CCC(N2Cc3c(CN4CC5CC(C4)N5c4cccc(Cl)c4Cl)cccc3C2=S)C(=O)N1 (stereo not shown)
3. O=C1CCC(N2Cc3c(CN4CCC(c5ncnc6sccc56)CC4)cccc3C2=S)C(=O)N1 (stereo not shown)
4. CC1(C)CCC(CN2CC3CC(C2)N3Cc2ccc3c(c2)CN(C2CCC(=O)NC2=O)C3=S)=C(c2ccc(Cl)cc2)C1 (stereo not shown)
5. O=C1CCC(N2Cc3c(CN4CC=C(c5ncc6ccsc6n5)CC4)cccc3C2=S)C(=O)N1 (stereo not shown)
6. O=C1CCC(N2Cc3c(CN4CCN(c5cccc(C(F)(F)F)n5)CC4)cccc3C2=S)C(=O)N1 (stereo not shown)
7. O=C1CCC(N2Cc3c(CN4CCN(c5c(Cl)cncc5Cl)CC4)cccc3C2=S)C(=O)N1 (stereo not shown)
8. O=C1CCC(N2Cc3c(CN4CCC(c5ccnc6cc(F)ccc56)CC4)cccc3C2=S)C(=O)N1 (stereo not shown)

80 to 100%
60 to 80%
80 to 100%
80 to 100%
80 to 100%
80 to 100%
60 to 80%
80 to 100%
